Every entry's value here was drawn from patent US20240309103A1.

# SYSTEM TESTED: T1, mfNPR1-mFc:hANP complex (monkey; human, UniProt P01160 124-151)
# T1 construct: also called monkey NPR1 complexed to ANP
# MEASUREMENT PROTOCOL: SPR, mAb captured, 25C
# Procedure: Equilibrium dissociation constant (KD) for different NPR1 reagents binding to purified anti-NPR1 monoclonal antibodies (mAbs) were determined using a real-time surface plasmon resonance based Biacore 4000 biosensor. All binding studies were performed in 10 mM HEPES, 150 mM NaCl, 3 mM EDTA, and 0.05% v/v Surfactant Tween-20, pH 7.4 (HBS-ET) running buffer at 25° C. and 37° C. […]

BINDER: mAb25479 (antibody, human IgG4, V domains shown) VH: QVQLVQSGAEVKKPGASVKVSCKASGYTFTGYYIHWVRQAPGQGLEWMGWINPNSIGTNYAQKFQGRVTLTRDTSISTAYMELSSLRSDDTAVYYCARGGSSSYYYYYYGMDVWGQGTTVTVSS VL: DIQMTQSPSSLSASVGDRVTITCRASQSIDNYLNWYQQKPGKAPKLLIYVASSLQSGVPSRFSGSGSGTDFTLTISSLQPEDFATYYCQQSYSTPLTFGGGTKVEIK
UNIT NAME: M⁻¹ s⁻¹
kon: 42000
